// data source = patent US20230255964A1

# ASSAY_PROTOCOL: Chemical stability of BMS-986165:HPMCAS-H SDDs upon storage (related substances)
# Type: physicochemical
# EXPERIMENTAL_SETUP: API standard, no stability condition printed
ENDPOINT_NAME: Total imporities >LOQ (%)

SMILES_REPRESENTATION | OUTPUT_UNIT | NUMBER
[2H]C([2H])([2H])NC(=O)c1nnc(NC(=O)C2CC2)cc1Nc1cccc(-c2ncn(C)n2)c1OC | % | 0.52
